- experiment: Clearance in mouse at 1 mg/kg, iv
- Type: ADME, organism-based
- Parameters: dose 1 mg/kg, route intravenous
- condition-description: in vivo
measured-metric: clearance (mL/min/kg)
Provide the reading as a plain figure in mL/min/kg.

In the examples that follow, each entry is paired with its recorded clearance.
INSERT INTO results (smiles_string, value_unit, assay_result) VALUES
  ('CCNC(=O)Nc1ccc(-c2nc3c(c(N4CCOC[C@@H]4C)n2)C[C@@H]2CC[C@H]3N2C)cc1', 'mL/min/kg', 24),
  ('CCNC(=O)Nc1ccc(-c2nc3c(c(N4CCOC[C@@H]4C)n2)C[C@@H]2CC[C@H]3N2C(=O)COC)cc1', 'mL/min/kg', 9.38),
  ('CCNC(=O)Nc1ccc(-c2nc3c(c(N4CCOC[C@@H]4C)n2)[C@@H]2CC[C@H](C3)N2C)cc1', 'mL/min/kg', 34);

Supply measured clearance of CCNC(=O)Nc1ccc(-c2nc3c(c(N4CCOC[C@@H]4C)n2)C[C@@H]2CC[C@H]3N2S(C)(=O)=O)cc1 in your reply. 17.8

----------
- Tested on: PC-3
- experiment: Cytotoxicity against human PC3 cells after 4 days by CellTiter-Glo assay
- condition-description: PC-3, 96 h
Catalogue of molecules with associated EC50
Provide the reading as a plain figure in µM.

In the examples that follow, each entry is paired with its recorded EC50.
INSERT INTO measurements (smiles_string, measured_metric, assay_result) VALUES
  ('CCNC(=O)Nc1ccc(-c2nc3c(c(N4CCOC[C@@H]4C)n2)[C@H]2CC[C@@H](C3)N2CC)cc1', 'EC50', 0.145),
  ('CCNC(=O)Nc1ccc(-c2nc3c(c(N4CCOC[C@@H]4C)n2)[C@@H]2CC[C@H](C3)N2C)cc1', 'EC50', 0.152),
  ('CCNC(=O)Nc1ccc(-c2nc3c(c(N4CCOC[C@@H]4C)n2)C[C@@H]2CC[C@H]3N2C(=O)COC)cc1', 'EC50', 0.047);

Provide PC-3 EC50 reading for CCNC(=O)Nc1ccc(-c2nc3c(c(N4CCOC[C@@H]4C)n2)C[C@H]2CC[C@@H]3N2C)cc1 . 0.123

----------
- experiment: Plasma protein binding in human at 5 uM after 4 hrs by rapid equilibrium dialysis
- Assay type: ADME, cell-free
- condition-description: read-out: PPB (converted)
Give true (1) when the value for fraction unbound at 4 h, 5 µM is at least 0.2. Give false (0) when it is less.

Answered examples (2):
INSERT INTO measurements (smiles_string, answer_label) VALUES
  ('CCNC(=O)Nc1ccc(-c2nc3c(c(N4CCOC[C@@H]4C)n2)C[C@@H]2CC[C@H]3N2S(C)(=O)=O)cc1', 'false (0)'),
  ('CCNC(=O)Nc1ccc(-c2nc3c(c(N4CCOC[C@@H]4C)n2)[C@H]2CC[C@@H](C3)N2C)cc1', 'true (1)');

Record CCNC(=O)Nc1ccc(-c2nc3c(c(N4CCOC[C@@H]4C)n2)[C@@H]2CC[C@H](C3)N2C)cc1 ; criterion: fraction unbound at 4 h, 5 µM no lower than 0.2. Met? true (1)

Record CCNC(=O)Nc1ccc(-c2nc3c(c(N4CCOC[C@@H]4C)n2)C[C@@H]2CC[C@H]3N2C(C)=O)cc1 ; criterion: fraction unbound at 4 h, 5 µM no lower than 0.2. Met? false (0)

Record CCNC(=O)Nc1ccc(-c2nc3c(c(N4CCOC[C@@H]4C)n2)C[C@@H]2CC[C@H]3N2C(=O)COC)cc1 ; criterion: fraction unbound at 4 h, 5 µM no lower than 0.2. Met? true (1)

Record CCNC(=O)Nc1ccc(-c2nc3c(c(N4CCOC[C@@H]4C)n2)C[C@@H]2CC[C@H]3N2C2COC2)cc1 ; criterion: fraction unbound at 4 h, 5 µM no lower than 0.2. Met? false (0)
